Test system: control sera (pooled serum of ten healthy LUMC hospital workers; commercial negative donor pooled serum from the Dutch bloodbank)
Type: binding, human
measurement label: Control serum Blood-bank linear peptides

>>> value_measured("FPPTEPKKDKKKKTD")
0.6
>>> value_measured("QPTVTLLPAADMDDF")
0.7
>>> value_measured("DAYKTFPPTEPKKDK")
0.8
>>> value_measured("KHIDAYKTFPPTEPK")
0.8
>>> value_measured("NKHIDAYKTFPPTEP")
0.6
>>> value_measured("QFKDNVILLNKHIDA")
0.6
>>> value_measured("QFAPSASAFFGMSRI")
0.7
>>> value_measured("MDDFSRQLQNSMSGA")
1.0
>>> value_measured("RQLQNSMSGASADST")
0.7

====

Tested on: antibodies in sera from SARS patients (sera 1a, 1b, 2, 6, 37, 62, London, SARS-yellow, SARS-green)
Assay type: binding, human
// reported Binding of serum 37 to linear peptide (PEPSCAN-ELISA) for each item listed
measurement label: Binding of serum 37 to linear peptide (PEPSCAN-ELISA)

>>> value_measured("SKKPRQKRTATKQYN")
0.6
>>> value_measured("GDQDLIRQGTDYKHW")
0.6
>>> value_measured("NQLESKVSGKGQQQQ")
0.7
>>> value_measured("RGNSRNSTPGSSRGN")
0.7
>>> value_measured("DQDLIRQGTDYKHWP")
0.7
>>> value_measured("RLNQLESKVSGKGQQ")
0.7
>>> value_measured("SQASSRSSSRSRGNS")
0.6
>>> value_measured("AEASKKPRQKRTATK")
0.7
>>> value_measured("GGGETALALLLLDRL")
0.7
>>> value_measured("KQYNVTQAFGRRGPE")
0.6
>>> value_measured("PKGFYAEGSRGGSQA")
0.6
>>> value_measured("SRNSTPGSSRGNSPA")
0.8
>>> value_measured("GETALALLLLDRLNQ")
0.5
>>> value_measured("SSRSSSRSRGNSRNS")
0.5
>>> value_measured("GGSQASSRSSSRSRG")
0.7
>>> value_measured("AEGSRGGSQASSRSS")
0.7
>>> value_measured("ETALALLLLDRLNQL")
0.6

====

Test system: antibodies in sera from SARS patients (sera 1a, 1b, 2, 6, 37, 62, London, SARS-yellow, SARS-green)
Assay type: binding, human
# Binding of serum 1b to looped/cyclic peptides of protein M of SARS-CoV Urbani >= 0.4 gives yes (1), anything below gives no (0)

>>> group_label("WNLVIGFLFLAWIML")
"yes (1)"
>>> group_label("NLVIGFLFLAWIMLL")
"yes (1)"
>>> group_label("ACIVGLMWLSYFVAS")
"no (0)"
>>> group_label("CIVGLMWLSYFVASF")
"no (0)"
>>> group_label("RINWVTGGIAIAMAC")
"no (0)"
>>> group_label("AYNRYRIGNYKLNTD")
"yes (1)"
>>> group_label("IGFLFLAWIMLLQFA")
"yes (1)"
>>> group_label("FLAWIMLLQFAYSNR")
"yes (1)"

====

Test system: antibodies in sera from SARS patients (sera 1a, 1b, 2, 6, 37, 62, London, SARS-yellow, SARS-green)
Format: binding, human
Set-up: unit not given here
measurement label: Binding of serum 6 to linear peptides of protein X5 of SARS-CoV Urbani

>>> value_measured("QTAAFRDVLVVLNKR")
0.6
>>> value_measured("TRGNTYSTAWLCALG")
0.6
>>> value_measured("VQTCTPNVTINCQDP")
0.8
>>> value_measured("NTRGNTYSTAWLCAL")
0.7
>>> value_measured("AAFRDVLVVLNKRTN")
0.8
>>> value_measured("GALIARCWYLHEGHQ")
0.7
>>> value_measured("AGGALIARCWYLHEG")
0.7
>>> value_measured("YNTRGNTYSTAWLCA")
0.8
>>> value_measured("GKVLPFHRWHTMVQT")
0.3

Cited source for all entries: patent US20070128217A1
